target: 5-LOX (lipoxygenase) (Glycine max); construct: purchased Sigma-Aldrich (St. Louis, MO, USA); assay: Lipoxygenase (5-LOX) activity assay; type: biochemical, Glycine max (soybean)
Sequence (P08170 whole entry): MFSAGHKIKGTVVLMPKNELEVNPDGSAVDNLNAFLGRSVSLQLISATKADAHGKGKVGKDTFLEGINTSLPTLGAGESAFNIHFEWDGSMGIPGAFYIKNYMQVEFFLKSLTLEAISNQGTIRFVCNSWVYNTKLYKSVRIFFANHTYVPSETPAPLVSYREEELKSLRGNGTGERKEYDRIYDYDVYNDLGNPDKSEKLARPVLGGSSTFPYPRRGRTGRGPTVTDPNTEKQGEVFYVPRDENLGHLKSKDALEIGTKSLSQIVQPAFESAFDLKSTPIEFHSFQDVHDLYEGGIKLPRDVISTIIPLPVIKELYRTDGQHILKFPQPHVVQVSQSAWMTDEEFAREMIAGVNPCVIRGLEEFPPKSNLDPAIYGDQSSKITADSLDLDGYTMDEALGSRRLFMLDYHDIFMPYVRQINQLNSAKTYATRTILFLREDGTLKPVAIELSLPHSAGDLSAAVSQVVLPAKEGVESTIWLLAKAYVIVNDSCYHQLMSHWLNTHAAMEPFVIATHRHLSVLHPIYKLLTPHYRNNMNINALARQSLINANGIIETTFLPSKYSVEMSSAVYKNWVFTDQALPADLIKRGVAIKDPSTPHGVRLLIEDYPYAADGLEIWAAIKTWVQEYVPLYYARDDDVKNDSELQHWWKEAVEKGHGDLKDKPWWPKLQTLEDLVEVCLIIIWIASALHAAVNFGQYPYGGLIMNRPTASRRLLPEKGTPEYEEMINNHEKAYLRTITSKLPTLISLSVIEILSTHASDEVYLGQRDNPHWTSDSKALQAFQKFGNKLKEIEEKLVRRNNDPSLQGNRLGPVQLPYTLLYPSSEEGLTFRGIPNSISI
result_type: IC50 (µM)

>>> numeric_result("O=C(O)c1ccc(O)c(O)c1")
247
